# EXPERIMENT SUMMARY: Fraction absorbed in Beagle dog at 3 mg/kg, po using amorphous form of sample
# Format: ADME, organism-based, Canis lupus familiaris
# EXPERIMENTAL PARAMETERS: in vivo, read-out: Fabs
PARAMETER: Fa (%)
Give a bare numeral; the unit % is implied.

Request: Give a short answer stating reported Fa for "CC(=O)N1Cc2cc(S(C)(=O)=O)ccc2[C@@H]1C(=O)Nc1ccc(C(O)(C(F)(F)F)C(F)(F)F)cc1" .
Response: 99

###

# EXPERIMENT SUMMARY: physchem
# EXPERIMENTAL PARAMETERS: 1-octanol/phosphate buffered saline, pH 7.4
PARAMETER: logD
Give only the figure.

Please review the entries below; each comes with its answer.
> print(dat)
                                   compound  endpoint.result
1  COCCS(=O)(=O)c1ccc2c(c1)CN(C(C)=O)C2C(=O)Nc1ccc(C(O)(C(F)(F)F)C(F)(F)F)cc1 (stereo unspecified)              2.5
2  CC(=O)N1Cc2cc(S(=O)(=O)CCO)ccc2C1C(=O)Nc1ccc(C(O)(C(F)(F)F)C(F)(F)F)cc1 (stereo unspecified)              2.1
3  CNS(=O)(=O)c1ccc2c(c1)CN(C(C)=O)C2C(=O)Nc1ccc(C(O)(C(F)(F)F)C(F)(F)F)cc1 (stereo unspecified)              2.8
4  CC(=O)N1Cc2cc(S(=O)(=O)CC3CC3)ccc2C1C(=O)Nc1ccc(C(O)(C(F)(F)F)C(F)(F)F)cc1 (stereo unspecified)              3.4
5  CC(=O)N1CCc2cc(S(C)(=O)=O)ccc2C1C(=O)Nc1ccc(C(O)(C(F)(F)F)C(F)(F)F)cc1 (racemic)              2.9

Request: Identify measured logD associated with CNS(=O)(=O)c1ccc2c(c1)CN(C=O)C2C(=O)Nc1ccc(C(O)(C(F)(F)F)C(F)(F)F)cc1 (stereo unspecified)
Response: 2.7

Request: Output measured logD for this item: NCCC(=O)N1Cc2cc(S(=O)(=O)CC3CC3)ccc2C1C(=O)Nc1ccc(C(O)(C(F)(F)F)C(F)(F)F)cc1 (stereo unspecified)
Response: 1.1

Request: For the compound COCC(=O)N1Cc2cc(S(=O)(=O)CC3CC3)ccc2C1C(=O)Nc1ccc(C(O)(C(F)(F)F)C(F)(F)F)cc1 (stereo unspecified) , give its reported logD.
Response: 3.2

Request: Hello, please tell me recorded logD for this one: "CCS(=O)(=O)c1ccc([C@H](CC(=O)NC)C(=O)Nc2ccc(C(O)(C(F)(F)F)C(F)(F)F)cc2)cc1"
Response: 3.1

Request: Given CC(=O)NC(C(=O)Nc1ccc(C(O)(C(F)(F)F)C(F)(F)F)cc1)c1ccc(S(C)(=O)=O)cc1 (racemic) , respond with its logD.
Response: 2.7

Request: For the compound CC(=O)N1Cc2cc(S(=O)(=O)NC3CC3)ccc2C1C(=O)Nc1ccc(C(O)(C(F)(F)F)C(F)(F)F)cc1 (stereo unspecified) , give its measured logD value.
Response: 3.2

###

# EXPERIMENT SUMMARY: in vitro
# EXPERIMENTAL PARAMETERS: human, liver microsomes
Quick reference for microsomal CLint among some molecules

Request: Quickly give me recorded microsomal CLint for COC(=O)N1Cc2cc(S(C)(=O)=O)ccc2C1C(=O)Nc1ccc(C(O)(C(F)(F)F)C(F)(F)F)cc1 (stereo not given)
Response: < 3 µL/min/mg

Request: In one line, give reported microsomal CLint of the entry CS(=O)(=O)c1ccc2c(c1)CN(C(=O)CCC#N)C2C(=O)Nc1ccc(C(O)(C(F)(F)F)C(F)(F)F)cc1 (stereo not given) .
Response: < 3 µL/min/mg

Request: Identify the reported microsomal CLint for the following entry. "CCS(=O)(=O)c1ccc([C@@H](CC(=O)NC)C(=O)Nc2ccc(C(O)(C(F)(F)F)C(F)(F)F)cc2)cc1"
Response: < 3 µL/min/mg

Request: Look up and state reported microsomal CLint for CCS(=O)(=O)c1ccc(C(Cc2nnco2)C(=O)Nc2ccc(C(O)(C(F)(F)F)C(F)(F)F)cc2)cc1 (stereo not given)
Response: < 3 µL/min/mg

Request: Specify reported microsomal CLint for the molecule shown: COCCS(=O)(=O)c1ccc2c(c1)CN(C(C)=O)C2C(=O)Nc1ccc(C(O)(C(F)(F)F)C(F)(F)F)cc1 (stereo not given)
Response: 11 µL/min/mg
